Origin of values: PubChem BioAssay AID624330

experimental-target: Rac GTPase-activating protein 1 (Homo sapiens) (UniProt Q9H0H5)
Sequence (Q9H0H5 whole entry, looked up): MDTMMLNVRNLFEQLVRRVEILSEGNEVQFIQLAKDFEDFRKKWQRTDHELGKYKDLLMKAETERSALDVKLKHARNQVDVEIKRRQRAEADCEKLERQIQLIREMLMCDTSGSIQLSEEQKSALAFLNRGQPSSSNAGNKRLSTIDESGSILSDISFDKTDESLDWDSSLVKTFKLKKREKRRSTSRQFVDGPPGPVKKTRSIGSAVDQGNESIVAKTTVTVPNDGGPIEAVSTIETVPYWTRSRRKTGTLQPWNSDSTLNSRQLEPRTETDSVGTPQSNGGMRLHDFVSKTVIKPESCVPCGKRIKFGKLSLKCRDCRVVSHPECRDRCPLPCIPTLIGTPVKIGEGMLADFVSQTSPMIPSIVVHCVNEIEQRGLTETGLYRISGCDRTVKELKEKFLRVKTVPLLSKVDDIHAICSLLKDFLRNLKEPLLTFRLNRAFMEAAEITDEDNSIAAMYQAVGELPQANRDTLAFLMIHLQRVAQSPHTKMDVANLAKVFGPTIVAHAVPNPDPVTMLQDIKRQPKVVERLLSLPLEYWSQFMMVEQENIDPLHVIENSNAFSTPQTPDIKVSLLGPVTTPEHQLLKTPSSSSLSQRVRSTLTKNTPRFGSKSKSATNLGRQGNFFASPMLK
assay-protocol: blockers of MgcRacGAP-driven Rac1 GTP hydrolysis – biochemical, ADP Hunter fluorescence, primary and confirmatory, confirmation (AID 624330);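 also: fluorescence reports GDP produced by GAP-driven GTP hydrolysis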
particulars: MgcRacGAP-stimulated Rac1 GTP hydrolysis, at 30 µM, hits give high values, GST-tagged Rac1 F28L mutant substrate
Hit rate of the full screen: of about 340,000 compounds, about 2,100 (0.62%) were called active. Only a sample is shown. Measured potencies and affinities stand elsewhere.
readout-type: inhibition (%)
// units = %; emit number, no label

Tested on Rac GTPase-activating protein 1 (Homo sapiens) (UniProt Q9H0H5), the item O=C(NCCN1C(=O)S/C(=C\c2ccccc2F)C1=O)C1CCCN1C(=O)c1cccs1 (stereo unspecified) showed inhibition equal to -14.1

Tested on Rac GTPase-activating protein 1 (Homo sapiens) (UniProt Q9H0H5), the item `O=C(NC1=C(Nc2ccc(Cl)cc2)C(=O)c2ccccc2C1=O)c1ccccc1` showed inhibition equal to 6.16

Tested on Rac GTPase-activating protein 1 (Homo sapiens) (UniProt Q9H0H5), the item CCc1cc(=O)oc2cc(OC(C)C(=O)NCc3ccccn3)ccc12 (stereo unspecified) showed inhibition equal to 7.67

Tested on Rac GTPase-activating protein 1 (Homo sapiens) (UniProt Q9H0H5), the item `COc1cccc(CN2CCC(N(CCc3ccccc3)Cc3ccccc3)CC2)c1OC` showed inhibition equal to 22.3

Tested on Rac GTPase-activating protein 1 (Homo sapiens) (UniProt Q9H0H5), the item `CCOC(=O)N1CCN(c2ccc(Cl)c(Cl)c2)CC1` showed inhibition equal to -6.41

Tested on Rac GTPase-activating protein 1 (Homo sapiens) (UniProt Q9H0H5), the item `CN(C)CC1(c2ccccc2)CCCC1` showed inhibition equal to -6.5

Tested on Rac GTPase-activating protein 1 (Homo sapiens) (UniProt Q9H0H5), the item `COc1ccc2sc3ccccc3c(=O)c2c1OC` showed inhibition equal to 2.12

Tested on Rac GTPase-activating protein 1 (Homo sapiens) (UniProt Q9H0H5), the item `O=C(Nc1ccccc1Cl)c1ccccc1` showed inhibition equal to 6.83

Tested on Rac GTPase-activating protein 1 (Homo sapiens) (UniProt Q9H0H5), the item COc1cccc2c1C(=O)c1c(O)c3c(c(O)c1C2=O)CC(O)(C(=O)CO)CC3OC1CC(N(C)C)C(O)C(C)O1 (stereo unspecified) showed inhibition equal to 20.6

Tested on Rac GTPase-activating protein 1 (Homo sapiens) (UniProt Q9H0H5), the item `Cc1ccc(-c2n[nH]c(=S)n2C)cc1` showed inhibition equal to 14.7

Tested on Rac GTPase-activating protein 1 (Homo sapiens) (UniProt Q9H0H5), the item `O=C1CC2(CCN(C(=O)c3ccccc3[N+](=O)[O-])CC2)Oc2ccccc21` showed inhibition equal to -0.23

Tested on Rac GTPase-activating protein 1 (Homo sapiens) (UniProt Q9H0H5), the item `CC(C)N(Cc1cc2ccccc2[nH]c1=O)C(=O)C(C)(C)C` showed inhibition equal to -1.34

Tested on Rac GTPase-activating protein 1 (Homo sapiens) (UniProt Q9H0H5), the item `CCOC(=O)N1CCC(N2CCN(S(=O)(=O)c3ccc(OC)cc3)CC2)CC1` showed inhibition equal to 20.1

Tested on Rac GTPase-activating protein 1 (Homo sapiens) (UniProt Q9H0H5), the item `O=S(=O)(c1ccc(Cl)cc1)N1CCN(C2CCN(Cc3ccccc3)CC2)CC1` showed inhibition equal to 2.66

Tested on Rac GTPase-activating protein 1 (Homo sapiens) (UniProt Q9H0H5), the item `c1ccc(C[C@H]2CN=C(Nc3ccccc3)N2CC2CCCCC2)cc1` showed inhibition equal to 3.05

Tested on Rac GTPase-activating protein 1 (Homo sapiens) (UniProt Q9H0H5), the item `Cc1cccc(NC(=S)N2CCN(S(=O)(=O)c3ccc(F)cc3)CC2)c1` showed inhibition equal to 8.03

Tested on Rac GTPase-activating protein 1 (Homo sapiens) (UniProt Q9H0H5), the item `O=C(CCN1C(=O)c2cccc3cccc(c23)C1=O)Nc1ccccc1` showed inhibition equal to 2.77

Tested on Rac GTPase-activating protein 1 (Homo sapiens) (UniProt Q9H0H5), the item `O=[N+]([O-])c1cccc(CSc2nc3ccccc3[nH]2)c1` showed inhibition equal to 3.52

Tested on Rac GTPase-activating protein 1 (Homo sapiens) (UniProt Q9H0H5), the item `CCOC(=O)N1CCN(CC(=O)Nc2ccc(Oc3ccccc3)cc2)CC1` showed inhibition equal to 5.48

Tested on Rac GTPase-activating protein 1 (Homo sapiens) (UniProt Q9H0H5), the item `Cc1ccc(-c2cn3c(=S)[nH]nc3s2)cc1` showed inhibition equal to 22.2

Tested on Rac GTPase-activating protein 1 (Homo sapiens) (UniProt Q9H0H5), the item CCN1C(=O)C(C(=O)c2ccccc2)SC1=S (stereo unspecified) showed inhibition equal to 2.79

Tested on Rac GTPase-activating protein 1 (Homo sapiens) (UniProt Q9H0H5), the item `C#CCNc1cc(C)nc2ncnn12` showed inhibition equal to 1.75

Tested on Rac GTPase-activating protein 1 (Homo sapiens) (UniProt Q9H0H5), the item `COc1ccccc1N1CCN(C2CCN(S(=O)(=O)c3ccc(C)cc3)CC2)CC1` showed inhibition equal to -5.5

Tested on Rac GTPase-activating protein 1 (Homo sapiens) (UniProt Q9H0H5), the item `CCOc1ccc(-n2c(-c3ccco3)n[nH]c2=S)cc1` showed inhibition equal to 15.8

Tested on Rac GTPase-activating protein 1 (Homo sapiens) (UniProt Q9H0H5), the item `O=c1c2ccccc2sc2c(CO)ccc(NCCN3CCCCC3)c12` showed inhibition equal to 27.3

Tested on Rac GTPase-activating protein 1 (Homo sapiens) (UniProt Q9H0H5), the item `COc1ccc(N2CCN(C(=O)C3=NNC(=O)CC3)CC2)cc1` showed inhibition equal to 4.93

Tested on Rac GTPase-activating protein 1 (Homo sapiens) (UniProt Q9H0H5), the item `COc1ccc(-c2cc(-c3ccccc3)nc(N3CCCC3)n2)cc1OC` showed inhibition equal to 3.15

Tested on Rac GTPase-activating protein 1 (Homo sapiens) (UniProt Q9H0H5), the item `Cc1sc2nc(SCC(=O)N3CCN(CCO)CC3)n(-c3ccccc3)c(=O)c2c1C` showed inhibition equal to 6.94

Tested on Rac GTPase-activating protein 1 (Homo sapiens) (UniProt Q9H0H5), the item `NC(=S)NNC(=O)[C@@H]1CCCC[C@@H]1C(=O)O` showed inhibition equal to 11.2

Tested on Rac GTPase-activating protein 1 (Homo sapiens) (UniProt Q9H0H5), the item `CCOC(=O)N1CCN(c2ccc(N3C(=O)CCCC3=O)cc2[N+](=O)[O-])CC1` showed inhibition equal to 4.36

Tested on Rac GTPase-activating protein 1 (Homo sapiens) (UniProt Q9H0H5), the item `CCN(CC)CCNc1ccc(CO)c2oc3cc(Cl)ccc3c(=O)c12` showed inhibition equal to 4.45

Tested on Rac GTPase-activating protein 1 (Homo sapiens) (UniProt Q9H0H5), the item `Clc1cccc(N2CCN(CCCN3CCN(c4ccccc4)CC3)CC2)c1` showed inhibition equal to 7.52

Tested on Rac GTPase-activating protein 1 (Homo sapiens) (UniProt Q9H0H5), the item `COc1c2ccoc2cc2oc(C)cc(=O)c12` showed inhibition equal to 6.29

Tested on Rac GTPase-activating protein 1 (Homo sapiens) (UniProt Q9H0H5), the item `CCN(CC)CCNc1ccc(CO)c2sc3ccccc3c(=O)c12` showed inhibition equal to 16.6

Tested on Rac GTPase-activating protein 1 (Homo sapiens) (UniProt Q9H0H5), the item `CN(C)CCNc1ccc(Cl)cc1[N+](=O)[O-]` showed inhibition equal to -0.93

Tested on Rac GTPase-activating protein 1 (Homo sapiens) (UniProt Q9H0H5), the item `O=S(=O)(c1ccccc1)N1CCN(C2CCN(Cc3ccccc3)CC2)CC1` showed inhibition equal to 9.41

Tested on Rac GTPase-activating protein 1 (Homo sapiens) (UniProt Q9H0H5), the item Cc1ccc(NC2CCCN(C(=O)CCC3=NNC(=O)CC3)C2)cc1C (stereo unspecified) showed inhibition equal to 11.1

Tested on Rac GTPase-activating protein 1 (Homo sapiens) (UniProt Q9H0H5), the item `O=C1Nc2ccccc2C1=Nc1ccc(F)cc1` showed inhibition equal to 6.47

Tested on Rac GTPase-activating protein 1 (Homo sapiens) (UniProt Q9H0H5), the item COc1ccc(C(=O)C2CCCN(C(=O)CCC3=NNC(=O)CC3)C2)c(C)c1 (stereo unspecified) showed inhibition equal to -12.3

Tested on Rac GTPase-activating protein 1 (Homo sapiens) (UniProt Q9H0H5), the item `O=C1C=CC(=O)N1c1ccc(O)cc1` showed inhibition equal to 15.3

Tested on Rac GTPase-activating protein 1 (Homo sapiens) (UniProt Q9H0H5), the item `CCOc1ccc(C=NNc2ccc(S(=O)(=O)Nc3ccccc3C(=O)O)cc2[N+](=O)[O-])cc1` showed inhibition equal to 15.4

Tested on Rac GTPase-activating protein 1 (Homo sapiens) (UniProt Q9H0H5), the item `NC(=O)CN1CCN(c2cccc(Cl)c2)CC1` showed inhibition equal to 6.34

Tested on Rac GTPase-activating protein 1 (Homo sapiens) (UniProt Q9H0H5), the item `O=C(NNC(=O)c1cccc(C(F)(F)F)c1)c1ccncc1` showed inhibition equal to 8.11

Tested on Rac GTPase-activating protein 1 (Homo sapiens) (UniProt Q9H0H5), the item `COC(=O)N1CCN(c2ccc(Cl)c(Cl)c2)CC1` showed inhibition equal to 6.48

Tested on Rac GTPase-activating protein 1 (Homo sapiens) (UniProt Q9H0H5), the item CC1C2Cn3c(nc4ccccc43)C1N(C(C)C)O2 (stereo unspecified) showed inhibition equal to 10.4

Tested on Rac GTPase-activating protein 1 (Homo sapiens) (UniProt Q9H0H5), the item `COc1ccc(S(=O)(=O)N2CCN(Cc3ccccc3)CC2)cc1` showed inhibition equal to 5.15
